system: Gcr1 (UniProt P07261)
Sequence: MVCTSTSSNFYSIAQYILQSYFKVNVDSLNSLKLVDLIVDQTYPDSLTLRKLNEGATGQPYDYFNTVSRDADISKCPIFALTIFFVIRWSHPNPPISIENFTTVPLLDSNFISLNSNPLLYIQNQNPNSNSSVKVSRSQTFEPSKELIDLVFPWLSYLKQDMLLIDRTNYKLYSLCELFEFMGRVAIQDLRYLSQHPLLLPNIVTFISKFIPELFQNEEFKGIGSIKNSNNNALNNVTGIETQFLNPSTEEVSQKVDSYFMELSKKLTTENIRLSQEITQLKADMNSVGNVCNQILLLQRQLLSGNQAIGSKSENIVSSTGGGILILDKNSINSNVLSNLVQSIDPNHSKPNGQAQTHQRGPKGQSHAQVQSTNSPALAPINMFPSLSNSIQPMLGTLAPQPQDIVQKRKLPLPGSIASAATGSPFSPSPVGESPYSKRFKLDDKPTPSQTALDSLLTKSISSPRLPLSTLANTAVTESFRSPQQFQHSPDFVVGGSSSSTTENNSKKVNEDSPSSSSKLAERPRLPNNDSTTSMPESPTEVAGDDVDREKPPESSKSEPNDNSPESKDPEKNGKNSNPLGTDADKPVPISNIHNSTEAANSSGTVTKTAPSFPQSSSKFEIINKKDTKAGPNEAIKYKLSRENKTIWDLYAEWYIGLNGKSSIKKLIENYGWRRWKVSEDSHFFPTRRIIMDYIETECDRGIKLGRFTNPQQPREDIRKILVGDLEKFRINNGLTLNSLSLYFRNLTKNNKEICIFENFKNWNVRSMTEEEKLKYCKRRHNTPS
assay_explanation: PBM E-score (8-mer binding enrichment) (E-score (-0.5 to 0.5)); higher = stronger / more preferred TF binding
conditions_used: protein concentration: 100 nM; construct: GST-full length
In all, about 33,000 sequences were measured (“E-score (-0.5 to 0.5)”: median about -0.011, highest 2% from about 0.28 on). For the sample, the highest values were picked, then their nearest neighbours and some sequences at random.
measurement_name: PBM E-score
The response must contain the number and no unit.

Reference set, count: 5
>>> readout_number("CGGCGTGC")
-0.094
>>> readout_number("AGGCGTCA")
-0.194
>>> readout_number("AACCGGGT")
0.0617
>>> readout_number("TCCACAAA")
0.288
>>> readout_number("CAGGCTTC")
0.213

Challenge: Need PBM E-score of `CCCCACAC` , thanks.
Response given: 0.108

Challenge: Need PBM E-score of `AGGCGTCC` , thanks.
Response given: 0.387
